Every entry's value here was drawn from the supplement of paper PMC10567573.

B1: SLC35F2 (parent)
chain: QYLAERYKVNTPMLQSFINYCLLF

# Variants of: B1
# procedure summary: protein stability index of a GFP-peptide fusion (GPS, HEK-293T) (PSI 1-6); higher = more stable;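 also: lentivirally expressed fusions sorted by FACS into six bins by GFP to DsRed ratio, PSI derived from sequencing read proportions per bin multiplied by bin number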
# settings: c terminus: a fixed tail appended
property measured: protein stability index
Give bare numbers.

Answer for every listed entry: what is its protein stability index? The entries follow.
1. QYLAERYKVNGPMLQSFINYCLLF
2. QYLAERYKINTPMLQSFINYCLLF
3. QYLAERYKVNTPMLQSFINNCLLF
4. QYLAERYGVNTPMLQSFINYCLLF
5. HYLAERYKVNTPMLQSFINYCLLF
6. QYLAERYKVNTIMLQSFINYCLLF
7. QYLAERYKVNTPMLNSFINYCLLF
8. QYLAERYKVNTPMLQSPINYCLLF

1: 2.28; 2: 2.51; 3: 2.41; 4: 2.38; 5: 1.53; 6: 3.44; 7: 2.61; 8: 1.8
